- experiment: Plasma pharmacokinetics of MASM in rats, non-compartmental analysis
- Format: in vivo, Sprague-Dawley rats
- run.conditions: Sprague-Dawley, rat, plasma, iv, 15 mg/kg, i.v. 15 mg/kg, n = 6, mean ± SD
property.name: Tmax (min)

CNC1CC(=S)N2CC3CCCN4CCCC(C34)C2C1 (stereo not shown)	10.2

====

- experiment: Plasma pharmacokinetics of MASM in rats, non-compartmental analysis
- Assay type: in vivo, Sprague-Dawley rats
- run.conditions: Sprague-Dawley, rat, plasma, po, 60 mg/kg, i.g. 60 mg/kg, n = 6, mean ± SD, read-out: AUC(0–24)
property.name: AUC(0-t) (ng·h/mL)

CNC1CC(=S)N2CC3CCCN4CCCC(C34)C2C1 (stereo not shown)	13700

====

- experiment: Plasma pharmacokinetics of MASM in rats, non-compartmental analysis
- Format: in vivo, Sprague-Dawley rats
- run.conditions: Sprague-Dawley, plasma, po; rat, i.g. 60 mg/kg, n = 6, mean ± SD; read-out: t 1/2 (elimination half-life) (converted)
property.name: half-life (h)

CNC1CC(=S)N2CC3CCCN4CCCC(C34)C2C1 (stereo not shown)	10.2

====

- experiment: Plasma pharmacokinetics of MASM in rats, non-compartmental analysis
- Format: in vivo, Sprague-Dawley rats
- run.conditions: Sprague-Dawley, rat, plasma, ip, 80 mg/kg, i.p. 80 mg/kg, n = 6, mean ± SD
property.name: Tmax (min)

CNC1CC(=S)N2CC3CCCN4CCCC(C34)C2C1 (stereo not shown)	12.6

====

- experiment: Plasma pharmacokinetics of MASM in rats, non-compartmental analysis
- Format: in vivo, Sprague-Dawley rats
- run.conditions: Sprague-Dawley, plasma, iv; rat, i.v. 15 mg/kg, n = 6, mean ± SD
property.name: clearance (mL/min/kg)

CNC1CC(=S)N2CC3CCCN4CCCC(C34)C2C1 (stereo not shown) [MASM]	71.7

====

- experiment: Plasma pharmacokinetics of MASM in rats, non-compartmental analysis
- Format: in vivo, Sprague-Dawley rats
- run.conditions: Sprague-Dawley, rat, plasma, iv, 15 mg/kg, i.v. 15 mg/kg, n = 6, mean ± SD, read-out: AUC(0–t)
property.name: AUC(0-t) (ng·h/mL)

CNC1CC(=S)N2CC3CCCN4CCCC(C34)C2C1 (stereo not shown) [MASM]	4280

====

- experiment: Metabolite profiling of MASM in rats by UHPLC-QQQ-MS/MS
- Type: in vivo, Sprague-Dawley rats
- run.conditions: rat, MASM i.p. 80 mg/kg, i.g. 60 mg/kg
property.name: Method of Administration after which the metabolite of MASM was found

CN[C@@H]1CC(=S)N2CC3CCCN4C=CCC(C34)C2C1 (stereo partly shown)	i.g.
NC1CC(=S)N2CC3CCCN4CCCC(C34)C2C1 (stereo not shown)	i.p. i.g.
OCNC1CC(=S)N2CC3CCCN4CCCC(C34)C2C1 (stereo not shown)	i.g.
O=CNC1CC(=S)N2CC3CCCN4CCCC(C34)C2C1 (stereo not shown)	i.g.
O=C1C=CC[C@@H]2[C@H]3CCC[N+]4([O-])CCC[C@@H](CN12)[C@@H]34 (stereo partly shown)	i.p. i.g.
O=C1CCC[C@@H]2[C@H]3CCC[N+]4([O-])CCC[C@@H](CN12)[C@@H]34 (stereo partly shown)	i.p. i.g.
CNC1CC(S)N2CC3CCCN4CCCC(C34)C2C1 (stereo not shown)	i.p. i.g.

====

- experiment: Plasma pharmacokinetics of MASM in rats, non-compartmental analysis
- Type: in vivo, Sprague-Dawley rats
- run.conditions: Sprague-Dawley, rat, plasma, ip, 80 mg/kg, i.p. 80 mg/kg, n = 6, mean ± SD, read-out: AUC(0–24)
property.name: AUC(0-t)

CNC1CC(=S)N2CC3CCCN4CCCC(C34)C2C1 (stereo not shown)	15600 ng·h/mL

====

- experiment: Plasma pharmacokinetics of MASM in rats, non-compartmental analysis
- Format: in vivo, Sprague-Dawley rats
- run.conditions: Sprague-Dawley, plasma, iv; rat, i.v. 15 mg/kg, n = 6, mean ± SD
property.name: Cmax (ng/mL)

CNC1CC(=S)N2CC3CCCN4CCCC(C34)C2C1 (stereo not shown)	780

====

- experiment: Plasma pharmacokinetics of MASM in rats, non-compartmental analysis
- Format: in vivo, Sprague-Dawley rats
- run.conditions: Sprague-Dawley, plasma, ip; rat, i.p. 80 mg/kg, n = 6, mean ± SD
property.name: Cmax

CNC1CC(=S)N2CC3CCCN4CCCC(C34)C2C1 (stereo not shown) [MASM]	2210 ng/mL

====

- experiment: Acute toxicity of MASM in mice via intravenous administration
- Assay type: in vivo
- run.conditions: ICR, mouse, in vivo, iv, mice, intravenous; read-out: LD50, 95% confidence interval
- Experimental: All mice were administered MASM intravenously. The body weight of each mouse was measured on days 7 and 14. On the 14th day, all mice were euthanized, and the heart, liver, spleen, lung, and kidney were collected and weighed immediately. Serum was collected from the eyeballs for further biochemical analysis, and a small portion of each tissue and organ was fixed in 4% […] solution for histopathological examination. […]
property.name: LD50 at 14 day

CNC1CC(=S)N2CC3CCCN4CCCC(C34)C2C1 (stereo not shown)	70.8 to 129 mg/kg

====

- experiment: Plasma pharmacokinetics of MASM in rats, non-compartmental analysis
- Type: in vivo, Sprague-Dawley rats
- run.conditions: Sprague-Dawley, rat, plasma, iv, 15 mg/kg, i.v. 15 mg/kg, n = 6, mean ± SD, read-out: AUC(0–24)
- Experimental: […] A precisely measured MASM sample weighing 400 mg was dissolved in normal saline to create aqueous solutions with concentrations of 8.0, 6.0, and 1.5 mg/mL for intraperitoneal, oral, and intravenous administrations at doses of 80 mg/kg, 60 mg/kg, and 15 mg/kg, respectively. Seventy Sprague-Dawley rats were fasted overnight before dosing, with free access to water. […] The concentrations of MASM in plasma were then determined using linear regression equations. […]
property.name: AUC(0-t) (ng·h/mL)

CNC1CC(=S)N2CC3CCCN4CCCC(C34)C2C1 (stereo not shown)	5410

====

- experiment: Plasma pharmacokinetics of MASM in rats, non-compartmental analysis
- Format: in vivo, Sprague-Dawley rats
- run.conditions: Sprague-Dawley, plasma, oral; rat, i.g. 60 mg/kg vs i.v. 15 mg/kg, n = 6, mean ± SD; read-out: F(%) absolute intragastrical bioavailability
property.name: bioavailability

CNC1CC(=S)N2CC3CCCN4CCCC(C34)C2C1 (stereo not shown) [MASM]	44.5%

Origin of the recorded values: paper PMC10820135
